Target sequence: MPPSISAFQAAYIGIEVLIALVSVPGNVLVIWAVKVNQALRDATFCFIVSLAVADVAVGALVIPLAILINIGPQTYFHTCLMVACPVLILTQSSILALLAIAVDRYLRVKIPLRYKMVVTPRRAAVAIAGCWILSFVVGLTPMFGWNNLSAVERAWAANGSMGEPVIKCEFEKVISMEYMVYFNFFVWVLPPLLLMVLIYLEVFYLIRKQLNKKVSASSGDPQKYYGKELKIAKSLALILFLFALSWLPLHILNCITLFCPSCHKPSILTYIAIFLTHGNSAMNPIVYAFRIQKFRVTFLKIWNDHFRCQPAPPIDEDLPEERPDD
Consider the following Ki data for the protein given by its sequence, collected from several reports.

// worked examples, Ki included
>  <smi>
Cc1ccc(Nc2nc(-c3ccc(C)cc3)c(C(=O)Nc3sc4c(c3C#N)CCCC4)s2)cc1

>  <Ki>
> 10 µM

$$$$
>  <smi>
CC(=O)Oc1ccc(-c2cc3ccc(OC(C)=O)c(OC(C)=O)c3oc2=O)cc1OC(C)=O

>  <Ki>
> 100 µM

$$$$
>  <smi>
O=C(Nc1ccncc1)Nc1nc2nn(CCCOCc3ccccc3)cc2c2nc(-c3ccco3)nn12

>  <Ki>
> 1 µM

$$$$
>  <smi>
Cn1cc2c(Cl)nc(NC(=O)c3ccc(F)cc3)nc2n1

>  <Ki>
> 100 µM

$$$$
>  <smi>
CCNC(=O)[C@H]1O[C@@H](n2cnc3c(NNC(=O)c4ccc(Cl)cc4)ncnc32)[C@H](O)[C@@H]1O

>  <Ki>
> 5 µM

$$$$

Task: Name the reported Ki value associated with the compound CC(=O)Oc1cccc2cc(-c3ccsc3)c(=O)oc12
Output: > 100 µM

Task: Fill in: Ki of O=C(c1ccccc1)N(C(=O)c1ccccc1)c1nc(Cl)c2cn(CCc3ccccc3)nc2n1 is ___
Output: > 100 µM

Task: Data request, read-out Ki, for CCc1nc(-c2nc(C)cs2)c2sccc2n1
Output: 0.413 µM

Task: Looking for the measured Ki of c1ccc(Oc2nc(NC3CCCCC3)c3[nH]cnc3n2)cc1 , can you help?
Output: > 10 µM
